# measurement_target: β-secretase (BACE) (Homo sapiens)
# Construct: purchased Panvera
# Sequence (P56817 46-501): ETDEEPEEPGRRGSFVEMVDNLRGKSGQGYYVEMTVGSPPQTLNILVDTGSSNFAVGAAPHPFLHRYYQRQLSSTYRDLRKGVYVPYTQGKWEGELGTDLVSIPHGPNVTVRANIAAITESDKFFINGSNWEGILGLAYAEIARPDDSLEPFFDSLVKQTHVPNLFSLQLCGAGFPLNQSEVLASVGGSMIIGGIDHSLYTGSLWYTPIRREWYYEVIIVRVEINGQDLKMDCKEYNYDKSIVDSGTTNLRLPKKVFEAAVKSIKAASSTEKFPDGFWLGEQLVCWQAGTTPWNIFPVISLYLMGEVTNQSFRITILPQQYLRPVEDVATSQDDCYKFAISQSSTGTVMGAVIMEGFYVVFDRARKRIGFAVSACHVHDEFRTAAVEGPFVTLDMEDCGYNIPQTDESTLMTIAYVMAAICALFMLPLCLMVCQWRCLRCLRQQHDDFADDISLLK
# test_method_notes: BACE FS1 % Inhibition Assay
# Format: biochemical
# assay_setup: 1 μM test compound
Documented % Inhibition (FS) across a set of compounds
Report the figure in % without appending any unit label.

Example results:
// query Sample COc1ccccc1-c1ccc2c(c1)CN(Cc1cccc(C(=O)N(C)C3CCCCC3)c1)C(NC(C)=O)=N2 [Compound 607] — what was its % Inhibition (FS)?
// result 116

// query Let us now turn to NC1=Nc2ccc(Oc3ccccc3)cc2CN1C1CCCN(C(=O)C2CCCCC2)C1 (stereo not shown) [Compound 611]
// result 36

// query Let us now turn to CC(C)(C)OC(=O)NCC(C1CCCCC1)N1Cc2cc(Oc3ccccc3)ccc2N=C1N (stereo not shown) [Compound 257]
// result 105

// query Let us now turn to CCCCC(CC)C(=O)NCCN1Cc2cc(-c3ccccc3F)ccc2N=C1N (stereo not shown) [Compound 648]
// result 74

// query Let us now turn to CC(C)(C)OC(=O)NCC(c1ccccc1)N1Cc2cc(Oc3ccccc3)ccc2N=C1N (stereo not shown) [Compound 258]
// result 46

More entries:
// query Sample CN(C(=O)c1cccc(CN2Cc3cc(-c4cccc(C(=O)O)c4)ccc3N=C2N)c1)C1CCCCC1 [Compound 163] — what was its % Inhibition (FS)?
// result 33

// query Let us now turn to NC1=Nc2ccc(-c3ccccc3F)cc2CN1CCNC(=O)C12CC3CC(CC(C3)C1)C2 [Compound 644]
// result 72

// query Let us now turn to NC1=Nc2ccc(-c3ccccc3Cl)cc2CN1CCNC(=O)C1CCCC1 [Compound 650]
// result 94

The reported measurements were obtained from patent US8426429B2.
